Catalogue of binders with associated binding signal
Molecular target: T1, RBFOX1 RRM (Homo sapiens, UniProt Q9NWB1 109-208)
T1 sequence: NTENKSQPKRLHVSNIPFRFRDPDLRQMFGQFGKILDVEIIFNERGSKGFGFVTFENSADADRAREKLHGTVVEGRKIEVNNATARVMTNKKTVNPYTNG
Test: EMSA; HiTS-Eq, 1 nM pool, 10 min; buffer printed only for the single-RNA assays: 10 mM Tris pH 7.5, 150 mM NaCl, 3.4 mM EDTA, 0.001% NP-40, 30 C
Details: tags: His6 N-terminal (pET28a); label: 5' 32P
The full ranking holds about 16,000 sequences; the median of “ka relative to ugcaugu” is about 0.0091, and the highest 2% start at about 0.032. What follows is part of a selection rich in the highest values, with near analogues and random picks from the rest.

Binder | binding signal
GAGAACG (DNA:RNA) RNA: GGGAGACCGGAAUUCAGAUUGUCCGAGAACGUUAAAUCCCGUCGUAGCCACCA DNA 1: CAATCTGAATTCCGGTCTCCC DNA 2: TGGTGGCTACGACGGGATT | 0.0165 KA relative to UGCAUGU
CGCACGU (DNA:RNA) RNA: GGGAGACCGGAAUUCAGAUUGUCCCGCACGUUUAAAUCCCGUCGUAGCCACCA DNA 1: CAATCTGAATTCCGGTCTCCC DNA 2: TGGTGGCTACGACGGGATT | 0.0433 KA relative to UGCAUGU
CACGUUU (DNA:RNA) RNA: GGGAGACCGGAAUUCAGAUUGUCCCACGUUUUUAAAUCCCGUCGUAGCCACCA DNA 1: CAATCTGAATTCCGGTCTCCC DNA 2: TGGTGGCTACGACGGGATT | 0.00574 KA relative to UGCAUGU
CGGAACG (DNA:RNA) RNA: GGGAGACCGGAAUUCAGAUUGUCCCGGAACGUUAAAUCCCGUCGUAGCCACCA DNA 1: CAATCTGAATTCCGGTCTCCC DNA 2: TGGTGGCTACGACGGGATT | 0.0344 KA relative to UGCAUGU
UGGAACG (DNA:RNA) RNA: GGGAGACCGGAAUUCAGAUUGUCCUGGAACGUUAAAUCCCGUCGUAGCCACCA DNA 1: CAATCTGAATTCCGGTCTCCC DNA 2: TGGTGGCTACGACGGGATT | 0.0367 KA relative to UGCAUGU
GUGAACG (DNA:RNA) RNA: GGGAGACCGGAAUUCAGAUUGUCCGUGAACGUUAAAUCCCGUCGUAGCCACCA DNA 1: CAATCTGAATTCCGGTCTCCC DNA 2: TGGTGGCTACGACGGGATT | 0.0163 KA relative to UGCAUGU
GUUAACG (DNA:RNA) RNA: GGGAGACCGGAAUUCAGAUUGUCCGUUAACGUUAAAUCCCGUCGUAGCCACCA DNA 1: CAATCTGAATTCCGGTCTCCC DNA 2: TGGTGGCTACGACGGGATT | 0.0101 KA relative to UGCAUGU
UGGACCG (DNA:RNA) RNA: GGGAGACCGGAAUUCAGAUUGUCCUGGACCGUUAAAUCCCGUCGUAGCCACCA DNA 1: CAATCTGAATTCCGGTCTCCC DNA 2: TGGTGGCTACGACGGGATT | 0.0269 KA relative to UGCAUGU
GCCACGU (DNA:RNA) RNA: GGGAGACCGGAAUUCAGAUUGUCCGCCACGUUUAAAUCCCGUCGUAGCCACCA DNA 1: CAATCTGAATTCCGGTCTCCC DNA 2: TGGTGGCTACGACGGGATT | 0.011 KA relative to UGCAUGU
